# System: JCK
# test.description: qHTS profiling for inhibitors of Plasmodium falciparum proliferation (AID 504749); further: nearly all actives have a fitted effect of over 60% in size
# assay.context: P. falciparum in erythrocytes, SYBR Green DNA, 72 h; series mostly up to 28.7 µM
Records with an inconclusive call do not appear. Calls of active or inactive are those of the source. The call rests on the fitted dose curve; in most records, active means well fitted inhibition curve with a large enough effect; inconclusive means small, poorly fitted or top-dose-only effect; inactive means flat fitted curve, though single readings scatter.
Possible outcomes: active, inactive

1) CCc1c2c(nc3ccc(OC(=O)N4CCC(N5CCCCC5)CC4)cc13)-c1cc3c(c(=O)n1C2)COC(=O)[C@]3(O)CC ... inactive
2) CNNCc1ccc(C(=O)NC(C)C)cc1 ... inactive
3) CCOC(=O)c1ccc(C#Cc2ccc3c(c2)C(C)(C)CCS3)nc1 ... inactive
4) Cc1ncc([N+](=O)[O-])n1CCO ... inactive
5) O=P(O)(O)C(O)(Cc1cccnc1)P(=O)(O)O ... inactive
6) COc1ccc2cc3[n+](cc2c1OC)CCc1cc2c(cc1-3)OCO2 ... active
7) C1CCC(C(CC2CCCCN2)C2CCCCC2)CC1 (stereo not given) ... active
8) CN1CCN(c2c(F)cc3c(=O)c(C(=O)O)cn4c3c2OCN4C)CC1 ... inactive
9) COc1cnc(NS(=O)(=O)c2ccc(N)cc2)nc1 ... inactive
10) CN(CCOc1ccc(CC2SC(=O)NC2=O)cc1)c1ccccn1 (stereo not given) ... inactive
11) CCn1cc(C(=O)O)c(=O)c2cc(F)c(N3CCNCC3)cc21 ... inactive
12) COc1cc(NS(=O)(=O)c2ccc(N)cc2)nc(OC)n1 ... inactive
13) CC(C)(C#N)c1cc(Cn2cncn2)cc(C(C)(C)C#N)c1 ... inactive
14) CCCN[C@H]1CCc2nc(N)sc2C1 ... inactive
15) NC(N)=NC(N)=NCCc1ccccc1 ... inactive
16) S=P(N1CC1)(N1CC1)N1CC1 ... inactive
17) CCn1cc(C(=O)O)c(=O)c2cc(F)c(N3CCNCC3)nc21 ... inactive
18) CCOCC(O)COc1ccc(NC(=O)CC[S+](C)C)cc1 (stereo not given) ... inactive
19) CC[C@H](C)C(=O)O[C@H]1C[C@@H](C)C=C2C=C[C@H](C)[C@H](CC[C@@H]3C[C@@H](O)CC(=O)O3)[C@H]21 ... inactive
20) COc1ccc(-c2ccc3cc(C(=O)O)ccc3c2)cc1C12CC3CC(CC(C3)C1)C2 ... inactive
21) O=S(=O)(O)CCS ... inactive
22) COc1ccc(C(=O)CC(=O)c2ccc(C(C)(C)C)cc2)cc1 ... inactive
23) CN(C)CCc1c[nH]c2ccc(CS(=O)(=O)N3CCCC3)cc12 ... inactive
24) CCN(C)C(=O)Oc1cccc([C@H](C)N(C)C)c1 ... inactive
25) O=C(O)c1cc(=O)[nH]c(=O)[nH]1 ... inactive
26) COc1cccc(N(C)C(=S)Oc2ccc3c(c2)CCCC3)n1 ... inactive
27) CCC(C)(C)c1ccc(CC(C)CN2C[C@@H](C)O[C@@H](C)C2)cc1 (stereo not given in full) ... inactive
28) CN(C)c1ccc(C(=C2C=CC(=[N+](C)C)C=C2)c2ccc(N(C)C)cc2)cc1 ... active
29) COc1c(N2CCNC(C)C2)c(F)cc2c(=O)c(C(=O)O)cn(C3CC3)c12 (stereo not given) ... inactive
30) CN(Cc1cc(Br)cc(Br)c1N)C1CCCCC1 ... inactive
31) CCn1cc(C(=O)O)c(=O)c2cc(F)c(N3CCN(C)CC3)cc21 ... inactive
32) CC(C)Cn1cnc2c(N)nc3ccccc3c21 ... inactive
33) CN1CCN(c2c(F)cc3c(=O)c(C(=O)O)cn(CCF)c3c2F)CC1 ... inactive
34) Nc1ccc(S(=O)(=O)Nc2ccccn2)cc1 ... inactive
35) Cc1cccc(N(C)C(=S)Oc2ccc3ccccc3c2)c1 ... inactive
36) NC(=O)c1cccnc1 ... inactive
37) O=c1oc2c(O)c(O)cc3c(=O)oc4c(O)c(O)cc1c4c23 ... inactive
38) CCCc1cc(C(N)=S)ccn1 ... inactive
39) Cn1nnc2c(C(N)=O)ncn2c1=O ... inactive
40) CC[C@H](NC(C)C)[C@H](O)c1ccc(O)c2[nH]c(=O)ccc12 ... inactive
41) Cc1cccc(Nc2ccncc2S(=O)(=O)NC(=O)NC(C)C)c1 ... inactive
42) COc1nc(N)nc2c1ncn2[C@@H]1O[C@H](CO)[C@@H](O)[C@@H]1O ... inactive
43) C[C@]12C=CC(=O)C=C1CC[C@@H]1[C@@H]2C(=O)C[C@@]2(C)[C@H]1CC[C@]2(O)C(=O)CO ... inactive
44) Nc1[nH]c(=O)ncc1F ... inactive
45) N[C@@H](C(=O)N[C@@H]1C(=O)N2C(C(=O)O)=C(Cl)CS[C@H]12)c1ccccc1 ... inactive

====

# Tested on: 7G8
# test.description: qHTS profiling for inhibitors of Plasmodium falciparum proliferation (AID 504749); further: nearly all actives have a fitted effect of over 60% in size
# assay.context: P. falciparum in erythrocytes, SYBR Green DNA, 72 h; series mostly up to 28.7 µM
Records with an inconclusive call do not appear. Calls of active or inactive are those of the source. The call rests on the fitted dose curve; in most records, active means well fitted inhibition curve with a large enough effect; inconclusive means small, poorly fitted or top-dose-only effect; inactive means flat fitted curve, though single readings scatter.
Possible outcomes: active, inactive

1. CCN(C)C(=O)Oc1cccc([C@H](C)N(C)C)c1 ... inactive
2. Oc1c(Cl)cc(Cl)c2cccnc12 ... active
3. CNC(=O)c1cc(Oc2ccc(NC(=O)Nc3ccc(Cl)c(C(F)(F)F)c3)cc2)ccn1 ... active
4. Cn1nnc2c(C(N)=O)ncn2c1=O ... inactive
5. CNS(=O)(=O)Cc1ccc2[nH]cc(CCN(C)C)c2c1 ... inactive
6. CCCc1cc(C(N)=S)ccn1 ... inactive
7. COC(=O)Nc1nc2ccc(Sc3ccccc3)cc2[nH]1 ... inactive
8. COc1cnc(NS(=O)(=O)c2ccc(N)cc2)nc1 ... inactive
9. CC[C@H](NC(C)C)[C@H](O)c1ccc(O)c2[nH]c(=O)ccc12 ... inactive
10. CCn1cc(C(=O)O)c(=O)c2cc(F)c(N3CCNCC3)cc21 ... inactive
11. CCCN[C@H]1CCc2nc(N)sc2C1 ... inactive
12. C[C@]12C=CC(=O)C=C1CC[C@@H]1[C@@H]2C(=O)C[C@@]2(C)[C@H]1CC[C@]2(O)C(=O)CO ... inactive
13. O=C(O)c1cn(C2CC2)c2cc(N3CCNCC3)c(F)cc2c1=O ... active
14. COc1cc([C@@H]2c3cc4c(cc3[C@H](O)[C@H]3COC(=O)[C@H]23)OCO4)cc(OC)c1OC ... active
15. CCCc1nc(C)c2c(=O)[nH]c(-c3cc(S(=O)(=O)N4CCN(CC)CC4)ccc3OCC)nn12 ... active
16. N=C(N)c1ccc(OCCCCCOc2ccc(C(=N)N)cc2)cc1 ... active
17. CC(C)NCC(O)c1ccc(NS(C)(=O)=O)cc1 (stereo unspecified) ... inactive
18. COc1ccc2cc3[n+](cc2c1OC)CCc1cc2c(cc1-3)OCO2 ... active
19. OC(Cn1cncn1)(Cn1cncn1)c1ccc(F)cc1F ... inactive
20. Cc1cccc(N(C)C(=S)Oc2ccc3ccccc3c2)c1 ... inactive
21. NC(=O)c1cccnc1 ... inactive
22. S=P(N1CC1)(N1CC1)N1CC1 ... inactive
23. CNCC[C@H](Oc1cccc2ccccc12)c1cccs1 ... active
24. Cc1ncc([N+](=O)[O-])n1CCO ... inactive
25. Cc1cccc(Nc2ccncc2S(=O)(=O)NC(=O)NC(C)C)c1 ... inactive
26. CN1CCN(c2c(F)cc3c(=O)c(C(=O)O)cn(CCF)c3c2F)CC1 ... inactive

====

# test.description: Quantitative High-Throughput drug screen in 47 multiple myeloma cell lines against the NCATS MIPE library collection: KMS12BM_JCRB cell viability assay (AID 1918971); further: nearly all actives have a fitted effect of over 35% in size
# assay.context: KMS12BM myeloma viability, CellTiter-Glo ATP, 48 h; series mostly up to 45.8 µM
Inconclusive results are not listed. Activity calls are given as the source filed them. Calls come from the whole dose curve; as a rule, active = well fitted cell-killing curve with a large enough effect; inconclusive = small, poorly fitted or top-dose-only effect, or effect the other way; inactive = no such curve, though single readings can be large or run the other way.
Possible outcomes: YES (active), NO (inactive)

1. CNCC[C@H](Oc1cccc2ccccc12)c1cccs1 ... YES
2. CN(C)CCc1c[nH]c2ccc(C[C@H]3COC(=O)N3)cc12 ... NO
3. CC(C)OC(=O)C(C(=O)OC(C)C)=C1SC=CS1 ... YES
4. O=NN(CCCl)C(=O)NC1CCCCC1 ... NO
5. O=C(O)CSCC(=O)NC1CCSC1=O (stereo unspecified) ... NO
6. O[C@@H](CNC[C@H](O)[C@H]1CCc2cc(F)ccc2O1)[C@@H]1CCc2cc(F)ccc2O1 ... YES
7. CCC(=O)O[C@]1(C(=O)SCF)[C@H](C)C[C@H]2[C@@H]3C[C@H](F)C4=CC(=O)C=C[C@]4(C)[C@@]3(F)[C@@H](O)C[C@@]21C ... NO
8. CC(C)(C)NC(=O)[C@H]1CC[C@H]2[C@@H]3CC[C@H]4NC(=O)C=C[C@]4(C)[C@H]3CC[C@]12C ... NO
9. CNS(=O)(=O)CCc1ccc2[nH]cc(C3CCN(C)CC3)c2c1 ... YES
10. CC(C)C[C@H](NC(=O)[C@H](CCc1ccccc1)NC(=O)CN1CCOCC1)C(=O)N[C@@H](Cc1ccccc1)C(=O)N[C@@H](CC(C)C)C(=O)[C@@]1(C)CO1 ... YES
11. Cn1c(=O)c2c(ncn2CC(O)CO)n(C)c1=O (stereo unspecified) ... NO
12. NC(N)=NC(N)=NCCc1ccccc1 ... YES
13. CN1CCCC(n2nc(Cc3ccc(Cl)cc3)c3ccccc3c2=O)CC1 (stereo unspecified) ... YES
14. O=C(N[C@H](CO)[C@H](O)c1ccc([N+](=O)[O-])cc1)C(Cl)Cl ... NO
15. CCCCCCNC(=O)n1cc(F)c(=O)[nH]c1=O ... YES
16. CCN(CC)CCn1c(=O)c(Cc2ccc(OC)cc2)nc2ccccc21 ... NO
17. C[C@@H](NCCCc1cccc(C(F)(F)F)c1)c1cccc2ccccc12 ... NO
18. Cc1cc(NS(=O)(=O)c2ccc(N)cc2)no1 ... NO
19. Cc1cccc(N(C)C(=S)Oc2ccc3ccccc3c2)c1 ... NO
20. Cc1cccc(Nc2ccncc2S(=O)(=O)NC(=O)NC(C)C)c1 ... YES
21. Cc1onc(-c2ccccc2Cl)c1C(=O)N[C@@H]1C(=O)N2[C@@H]1SC(C)(C)[C@@H]2C(=O)O ... NO
22. COc1cc(NCc2ccc3nc(N)nc(N)c3c2C)cc(OC)c1OC ... YES
23. OCc1ccc(-c2nn(Cc3ccccc3)c3ccccc23)o1 ... YES
24. CCCc1nc(C)c2c(=O)[nH]c(-c3cc(S(=O)(=O)N4CCN(CC)CC4)ccc3OCC)nn12 ... YES
25. CCc1c2c(nc3ccc(OC(=O)N4CCC(N5CCCCC5)CC4)cc13)-c1cc3c(c(=O)n1C2)COC(=O)[C@]3(O)CC ... YES
26. CCOCC(O)COc1ccc(NC(=O)CC[S+](C)C)cc1 (stereo unspecified) ... NO
